meta.source: patent US10988474B2

MEASURED TARGET: human prostanoid DP1 receptor (Homo sapiens, UniProt Q13258)
Construct: expressed in transfected cells
Sequence (Q13258 whole entry): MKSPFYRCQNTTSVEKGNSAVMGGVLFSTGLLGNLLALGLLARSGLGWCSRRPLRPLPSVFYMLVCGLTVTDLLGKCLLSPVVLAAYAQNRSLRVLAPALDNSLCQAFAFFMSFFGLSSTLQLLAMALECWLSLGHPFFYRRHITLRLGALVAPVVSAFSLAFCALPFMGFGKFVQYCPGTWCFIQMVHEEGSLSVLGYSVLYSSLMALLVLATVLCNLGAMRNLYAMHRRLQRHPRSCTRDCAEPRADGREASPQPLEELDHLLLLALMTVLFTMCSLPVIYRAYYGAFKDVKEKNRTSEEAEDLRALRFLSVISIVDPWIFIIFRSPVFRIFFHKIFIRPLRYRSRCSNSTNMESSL
TEST: FLIPR Ca2+ signaling PG antagonist assay, DP1 stable cell line
Type: cell-based
CONDITION LABEL: HEK-293 EBNA cells, human recombinant DP1 with chimeric Gqs; standard agonist BW 245C; read-out: DP (Kb, PG antagonist activity)
MEASURE NAME: Kb (nM)

# STRUCTURE SMILES STRING, UNIT ABBREV, Kb
records = [
    ("CCC(CC)COc1ccc(Cl)cc1Cn1cc2c(C(=O)O)cccc2n1", "nM", 1000),
    ("CCC(CC)COc1ccc(Cl)cc1Cn1nc(C)c2cc(C(=O)O)cnc21", "nM", 580),
    ("CCC(CC)COc1ccc(Br)cc1Cn1ccc2ccc(C(=O)O)cc21", "nM", 2200),
    ("Cc1nn(Cc2cc(Cl)ccc2OCC(C)C)c2ncc(C(=O)O)cc12", "nM", 740),
    ("CC(C)COc1ccc(C(F)(F)F)cc1Cn1ncc2cc(C(=O)O)ccc21", "nM", 1400),
]

[A] CC(C)COc1ccc(O)cc1Cn1ncc2cc(C(=O)O)ccc21
[B] O=C(O)c1ccc2c(cnn2Cc2cc(Cl)ccc2OCC2CC2)c1
Request: Would you mind telling me which has the lower recorded Kb between A and B ? Pick one and reply with its label.
Result: B
(B: 900 nM, A: 9900 nM)

----------
MEASURED TARGET: human prostanoid TP receptor (Homo sapiens, UniProt P21731)
Construct: expressed in transfected cells
Sequence (P21731 whole entry): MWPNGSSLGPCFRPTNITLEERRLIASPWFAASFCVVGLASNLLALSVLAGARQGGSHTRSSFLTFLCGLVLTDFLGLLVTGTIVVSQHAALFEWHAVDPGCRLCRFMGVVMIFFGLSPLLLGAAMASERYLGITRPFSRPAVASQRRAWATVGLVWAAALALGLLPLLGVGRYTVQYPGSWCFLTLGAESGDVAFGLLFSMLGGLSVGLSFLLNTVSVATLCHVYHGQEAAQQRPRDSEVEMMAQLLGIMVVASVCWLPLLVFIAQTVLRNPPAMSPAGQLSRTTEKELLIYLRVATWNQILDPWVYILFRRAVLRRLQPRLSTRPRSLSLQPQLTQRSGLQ
TEST: FLIPR Ca2+ signaling PG antagonist assay, TP stable cell line
Assay type: cell-based
CONDITION LABEL: HEK-293 EBNA cells, human recombinant TP, no exogenous G-protein; standard agonist U-46619
MEASURE NAME: Kb (µM)

Here's what some known entries look like.
# STRUCTURE SMILES STRING, Kb / µM
records = [
    ("O=C(O)c1ccc2c(cnn2Cc2cc(Br)ccc2OCC2CCCC2)c1", 0.6),
    ("O=C(O)c1ccc2c(cnn2Cc2cc(C(F)(F)F)ccc2OCc2ccc(Cl)cc2)c1", 0.05),
    ("CCC(CC)COc1ccc(Br)cc1Cn1ccc2cc(C(=O)O)ccc21", 0.55),
]

[P] CCC(CC)COc1ccc(C(F)(F)F)cc1Cn1nc(C)c2cc(C(=O)O)ccc21
[Q] CC(C)(O)COc1ccc(Br)cc1Cn1ncc2cc(C(=O)O)ccc21
[R] O=C(O)c1ccc2c(cnn2Cc2cc(C(F)(F)F)ccc2OCC2CCCC2)c1
[S] Cc1nn(Cc2cc(Cl)ccc2OCC(C)C)c2ncc(C(=O)O)cc12
Request: Rank items: key Kb, increasing. Labels, requested order.
Result: R, P, S, Q

[1] CC(C)COc1ccc(OC(F)(F)F)cc1Cn1ccc2cc(C(=O)O)ccc21
[2] CC(C)COc1ccc(OC(F)(F)F)cc1Cn1ccc2cc(C(=O)O)cnc21
Request: Would you mind telling me which has the lower recorded Kb between 1 and 2 ? Pick one and reply with its label.
Result: 2

[P] CC(C)COc1ccc(OC(F)(F)F)cc1Cn1ncc2cc(C(=O)O)cnc21
[Q] CCC(CC)COc1ccc(Cl)cc1Cn1ncc2c(C(=O)O)cccc21
[R] CCC(CC)COc1ccc(Br)cc1Cn1ccc2ccc(C(=O)O)cc21
Request: Rank items: key Kb, increasing. Labels, requested order.
Result: Q, P, R

[I] O=C(O)c1ccc2c(cnn2Cc2cc(Cl)ccc2OCC2CCCC2)c1
[II] O=C(O)c1ccc2c(cnn2Cc2cc(Cl)ccc2OCc2ccccc2)c1
Request: Field: entry with larger Kb (options I / II ). Pick one and reply with its label.
Result: II
(II: 2.1 µM, I: 0.02 µM)

[I] CCC(CC)COc1ccc(OC(F)(F)F)cc1Cn1cc(C)c2cc(C(=O)O)ccc21
[II] CC(C)COc1ccc(OCC(F)F)cc1Cn1ncc2cc(C(=O)O)ccc21
[III] CC(C)COc1ccc(Cl)cc1Cn1cc2c(C(=O)O)cccc2n1
Request: Order these by Kb, descending, and give the full ranking. Labels, requested order.
Result: I, II, III

----------
MEASURED TARGET: human prostanoid EP2 receptor (Homo sapiens, UniProt P43116)
Construct: expressed in transfected cells
Sequence (P43116 whole entry): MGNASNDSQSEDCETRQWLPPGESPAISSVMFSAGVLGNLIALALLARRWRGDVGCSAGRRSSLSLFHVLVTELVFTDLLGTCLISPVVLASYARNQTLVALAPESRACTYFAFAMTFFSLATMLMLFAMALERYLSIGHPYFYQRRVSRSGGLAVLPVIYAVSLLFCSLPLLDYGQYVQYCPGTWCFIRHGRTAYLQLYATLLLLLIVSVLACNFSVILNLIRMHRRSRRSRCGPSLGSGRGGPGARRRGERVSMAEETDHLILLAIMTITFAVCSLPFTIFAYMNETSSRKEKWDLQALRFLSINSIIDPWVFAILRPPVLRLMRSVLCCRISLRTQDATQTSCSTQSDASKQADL
TEST: FLIPR Ca2+ signaling PG antagonist assay, EP2 stable cell line
Format: cell-based
CONDITION LABEL: HEK-293 EBNA cells, human recombinant EP2 with chimeric Gqs; standard agonist PGE2
MEASURE NAME: Kb (µM)

[P] CC(C)COc1ccc(Br)cc1Cn1ncc2c(C(=O)O)cccc21 [Example 7]
[Q] O=C(O)c1ccc2c(cnn2Cc2cc(Br)ccc2OCc2ccc(Cl)cc2)c1 [Example 13]
Request: Would you mind telling me which has the lower recorded Kb between P and Q ? Pick one and reply with its label.
Result: Q

[1] O=C(O)c1ccc2c(cnn2Cc2cc(Br)ccc2OCC2CC2)c1 [Example 15]
[2] O=C(O)c1ccc2c(cnn2Cc2cc(Cl)ccc2OCc2ccccc2)c1 [Example 8]
[3] O=C(O)c1ccc2c(cnn2Cc2cc(Br)ccc2OCC2CCCC2)c1 [Example 14]
Request: Rank items: key Kb, increasing. Labels, requested order.
Result: 3, 1, 2

[I] CC(C)COc1ccc(Cl)cc1Cn1ncc2c(C(=O)O)cccc21 [Example 36]
[II] O=C(O)c1ccc2c(cnn2Cc2cc(Cl)ccc2OCC2CCCC2)c1 [Example 10]
Request: Field: entry with larger Kb (options I / II ). Pick one and reply with its label.
Result: I

----------
MEASURED TARGET: human prostanoid EP4 receptor (Homo sapiens, UniProt P35408)
Construct: expressed in transfected cells
Sequence (P35408 whole entry): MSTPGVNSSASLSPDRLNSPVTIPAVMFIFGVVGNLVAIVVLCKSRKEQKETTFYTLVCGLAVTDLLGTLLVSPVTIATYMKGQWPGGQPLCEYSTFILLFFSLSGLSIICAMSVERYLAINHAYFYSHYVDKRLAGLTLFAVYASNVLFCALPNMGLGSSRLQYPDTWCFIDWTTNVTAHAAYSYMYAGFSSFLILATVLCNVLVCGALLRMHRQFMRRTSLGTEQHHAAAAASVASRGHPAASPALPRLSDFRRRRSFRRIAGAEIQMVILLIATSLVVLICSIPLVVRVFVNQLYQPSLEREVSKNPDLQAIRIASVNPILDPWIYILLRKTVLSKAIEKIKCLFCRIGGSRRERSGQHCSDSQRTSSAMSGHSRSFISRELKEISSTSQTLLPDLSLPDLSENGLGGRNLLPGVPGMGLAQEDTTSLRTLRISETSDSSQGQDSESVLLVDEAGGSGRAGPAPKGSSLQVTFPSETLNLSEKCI
TEST: FLIPR Ca2+ signaling PG antagonist assay, EP4 stable cell line
Type: cell-based
CONDITION LABEL: HEK-293 EBNA cells, human recombinant EP4 with chimeric Gqs; standard agonist PGE2
MEASURE NAME: Kb (nM)

Here's what some known entries look like.
# COMPOUND, MEASURED TARGET, UNIT ABBREV, Kb
data = [
    ("Cc1nn(Cc2cc(Br)ccc2OCC2(C)CC2)c2ccc(C(=O)O)cc12 [Example 28]", "human prostanoid EP4 receptor (Homo sapiens, UniProt P35408)", "nM", 40),
    ("O=C(O)c1ccc2c(cnn2Cc2cc(Cl)ccc2OCC2CC2)c1 [Example 11]", "human prostanoid EP4 receptor (Homo sapiens, UniProt P35408)", "nM", 110),
    ("CCC(CC)COc1ccc(Br)cc1Cn1nc(C)c2cc(C(=O)O)ccc21 [Example 27]", "human prostanoid EP4 receptor (Homo sapiens, UniProt P35408)", "nM", 53),
    ("Cc1cc2cc(C(=O)O)ccc2n1Cc1cc(Br)ccc1OCC(C)C [Example 66]", "human prostanoid EP4 receptor (Homo sapiens, UniProt P35408)", "nM", 1400),
    ("CC(C)COc1ccc(Br)cc1Cn1ccc2cc(C(=O)O)ccc21 [Example 67]", "human prostanoid EP4 receptor (Homo sapiens, UniProt P35408)", "nM", 340),
]

[A] CCC(CC)COc1ccc(Cl)cc1Cn1ncc2c(C(=O)O)cccc21 [Example 38]
[B] CCC(CC)Oc1ccc(Br)cc1Cn1ncc2cc(C(=O)O)ccc21 [Example 51]
Request: Field: entry with larger Kb (options A / B ). Pick one and reply with its label.
Result: A
(A: 400 nM, B: 270 nM)

----------
MEASURED TARGET: human prostanoid IP receptor (Homo sapiens)
Construct: expressed in transfected cells
TEST: FLIPR Ca2+ signaling PG antagonist assay, IP stable cell line
Type: cell-based
CONDITION LABEL: HEK-293 EBNA cells, human recombinant IP, no exogenous G-protein; standard agonist Cicaprost
MEASURE NAME: Kb (µM)

Here's what some known entries look like.
# STRUCTURE SMILES STRING, Kb / µM
data = [
    ("O=C(O)c1ccc2c(cnn2Cc2cc(Cl)ccc2OCC2CC2)c1", 5.5),
    ("CCC(CC)COc1ccc(C(F)(F)F)cc1Cn1nc(C)c2cc(C(=O)O)ccc21", 1.8),
]

[A] CCC(CC)COc1ccc(Br)cc1Cn1ccc2cc(C(=O)O)ccc21
[B] O=C(O)c1cccc2nn(Cc3cc(Cl)ccc3OCc3ccc(Cl)cc3)cc12
Request: Would you mind telling me which has the lower recorded Kb between A and B ? Pick one and reply with its label.
Result: A

[1] CCc1nn(Cc2cc(Br)ccc2OCC(CC)CC)c2ccc(C(=O)O)cc12
[2] CC(C)COc1cc(Cl)c(Cl)cc1Cn1ncc2cc(C(=O)O)ccc21
Request: Would you mind telling me which has the lower recorded Kb between 1 and 2 ? Pick one and reply with its label.
Result: 1
(1: 0.88 µM, 2: 3.2 µM)

----------
MEASURED TARGET: human prostanoid IP receptor (Homo sapiens, UniProt P43119)
Construct: expressed in transfected cells
Sequence (P43119 whole entry): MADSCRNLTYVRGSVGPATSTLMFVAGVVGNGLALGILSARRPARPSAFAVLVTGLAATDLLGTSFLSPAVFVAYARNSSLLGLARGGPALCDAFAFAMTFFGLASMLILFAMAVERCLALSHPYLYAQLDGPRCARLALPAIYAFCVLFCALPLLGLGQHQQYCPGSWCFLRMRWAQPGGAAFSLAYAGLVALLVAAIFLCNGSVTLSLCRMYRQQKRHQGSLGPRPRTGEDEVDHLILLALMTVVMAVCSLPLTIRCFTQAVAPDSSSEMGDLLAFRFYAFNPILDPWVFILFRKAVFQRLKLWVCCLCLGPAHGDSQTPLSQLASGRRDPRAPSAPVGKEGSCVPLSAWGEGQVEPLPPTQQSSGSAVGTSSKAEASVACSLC
TEST: FLIPR Ca2+ signaling PG antagonist assay, IP stable cell line
Format: cell-based
CONDITION LABEL: HEK-293 EBNA cells, human recombinant IP, no exogenous G-protein; standard agonist Cicaprost
MEASURE NAME: Kb (µM)

# STRUCTURE SMILES STRING, RESULT VALUE
measured = [
    ("Cc1cn(Cc2cc(OC(F)(F)F)ccc2OCC(C)C)c2ccc(C(=O)O)cc12", 4.4),
    ("O=C(O)c1ccc2c(cnn2Cc2cc(Cl)ccc2OCc2ccc(Cl)cc2)c1", 1.35),
    ("CC(C)COc1ccc(Br)cc1Cn1cc2ccc(C(=O)O)cc2n1", 4.9),
]

[A] O=C(O)c1ccc2c(cnn2Cc2cc(Cl)ccc2OCc2ccccc2)c1
[B] CC(C)COc1ccc(Br)cc1Cn1ccc2nc(C(=O)O)ccc21
Request: Field: entry with larger Kb (options A / B ). Pick one and reply with its label.
Result: B
